Tested on: NCI-H522 lung
Assay: NCI tumour cell line growth inhibition, 48 h
As shown below, each of these compounds has a reported TGI value.

{"columns": ["compound", "inequalitySymbol", "TGI / µM"],
 "data": [
  ["CCOC(=O)c1cnc(N(C)C)nc1SC(=N)N", ">", 100],
  ["Cc1cnc2ccc(C)c([N+](=O)[O-])c2c1NCCCN(C)C", ">", 100],
  ["Cc1c2ccccc2c(C2C3C(=O)N(c4ccc(Br)cc4)C(=O)C3ON2C(C(N)=O)c2ccccc2)c2ccccc12 (configuration not stated)", "=", 9],
  ["COc1c/c(=C2\\C=c3ccccc3=N2)[nH]/c1=C\\c1[nH]c(C)cc1C", ">", 41.9],
  ["O=C(CSc1nc2c(n1Nc1ccccc1)-c1ccccc1SC2)Nc1nc(-c2ccc(Cl)cc2)cs1", ">", 100],
  ["N#CC12C(=O)NC(=O)C1(C#N)C1C=CC2CC1 (configuration not stated)", ">", 100],
  ["CC(C)C[C@H](NC(=O)CNC(=O)c1cc(Cl)ccc1Cl)B(O)O", "=", 0.0414],
  ["C[C@H](C1CC(C)(O)C(C)(O)C(O)O1)[C@H]1CC[C@H]2[C@@H]3[C@@H]4O[C@@H]4[C@@]4(O)CC=CC(=O)[C@]4(C)[C@H]3CC[C@]12C (some centres not stated)", ">", 50],
  ["CC(=O)O[C@@H]1C2CCC3C(CC[C@@]4(C)C3CC[C@@H]4C(C)N(C)C)[C@@]2(C)CC[C@@H]1NC(=O)C=C(C)C (some centres not stated)", "=", 8.58],
  ["CCN1CCC(O)(c2ccc(Oc3ccc(Cl)cc3)cc2)C(C(=O)c2ccc(Oc3ccc(Cl)cc3)cc2)C1 (configuration not stated)", "=", 12],
  ["CSC1=N/C(=C\\c2ccc(Cl)cc2)C(=O)N1CN1CCCCC1", ">", 100],
  ["CSc1ccc2c(cc1=O)[C@@H](NC(=O)c1cccc([N+](=O)[O-])c1)CCc1cc(O)c(O)c(O)c1-2", "=", 68.2]
]}

* * *

Test system: UO-31 renal
Assay: NCI tumour cell line growth inhibition, 48 h
Consider the following molecules and their measured TGI readings.
propertyMeasured: TGI

{"columns": ["molecule", "subjectOfTest", "propertyMeasured", "result"],
 "data": [
  ["CCCCc1ccc(N=C(N)N)cc1", "UO-31 renal", "TGI", "> 100 µM"],
  ["CCOC(=O)c1cc(C2CCN(c3ccccc3)C2=O)c(/C(O)=C/C(C)=O)[nH]1 (stereo not drawn)", "UO-31 renal", "TGI", "> 100 µM"],
  ["CC1CC(N)=C(C#N)C1(C#N)C#N (stereo not drawn)", "UO-31 renal", "TGI", "> 100 µM"]
]}

* * *

System: NCI-H522 lung
Assay: NCI tumour cell line growth inhibition, 48 h

{"columns": ["compoundString", "TGI"],
 "data": [
  ["CCOCCOCCOCc1nc(C#N)c(N)o1", "> 100 µM"],
  ["COC(=O)c1c([N+](=O)[O-])ncn1[C@H]1OC[C@@H](OC(C)=O)[C@@H](OC(C)=O)[C@@H]1OC(C)=O", "> 100 µM"],
  ["C[C@@H]1C[C@H]2[C@@H]3CCC4=CC(=O)C=C[C@]4(C)[C@@]3(F)[C@@H](O)C[C@]2(C)[C@@]1(O)C(=O)CO", "> 100 µM"]
]}

* * *

The following compounds are listed with their measured TGI values.
Test system: SR leukemia
Assay: NCI tumour cell line growth inhibition, 48 h
propertyMeasured: TGI

{"columns": ["compound", "result"],
 "data": [
  ["CN1C(=O)C2(C)SC1(c1ccccc1)C1C(=O)N(c3ccccc3)C(=O)C12 (stereo not drawn)", "> 100 µM"],
  ["CSc1ncnc2c1ncn2CCC(=O)O", "> 100 µM"],
  ["Cc1ccc2c(=O)cc(-c3sccc3C)[nH]c2n1", "> 61.1 µM"],
  ["O=c1oc2ccc3ccccc3c2cc1-c1nnc(Nc2ccccc2)s1", "81.7 µM"],
  ["Cc1c(-c2cnccn2)ssc1=S", "> 100 µM"],
  ["Cc1cnc2ccc(C)c([N+](=O)[O-])c2c1NCCCN(C)C", "> 100 µM"],
  ["C[C@H]1C[C@@H]2[C@H]([C@@H](O)C[C@@]3(C)[C@H]2CC[C@]3(O)C(=O)CO)[C@@]2(C)C=CC(=O)C=C12", "> 100 µM"],
  ["CO/C=C/C=C(\\C#N)C(=O)OC", "> 100 µM"],
  ["O=C(Nc1ccccc1)c1cc(S(=O)(=O)Nc2n[nH]c(=O)n2-c2ccccc2)c(S)cc1Cl", "> 100 µM"],
  ["CC(C)(O)C(O)COc1c2c(cc3oc(=O)ccc13)OCO2 (stereo not drawn)", "> 100 µM"],
  ["Cc1onc(-c2ccccc2)c1C(=O)N/N=C/c1cc(Cl)cc(Cl)c1O", "25.1 µM"],
  ["COc1cc(/C=C2\\C(=O)N(C(=O)Cc3ccccc3)N=C2C)cc(OC)c1OC", "> 100 µM"],
  ["FC1(F)[Se]C2C3CCC(C3)C2C1(F)F (stereo not drawn)", "> 100 µM"],
  ["O=C(/C=C\\c1ccccc1O)c1ccc(O)cc1O", "> 100 µM"],
  ["CCOC(=O)C(C(=O)OCC)=C1SC(=Nc2ccccc2)C(=Nc2ccccc2)N1c1ccccc1", "> 100 µM"],
  ["O=C1N[C@@H]2[C@@H](O)[C@@H](O)[C@H](O)C[C@H]2c2cc3c(c(O)c21)OCCO3", "27.4 µM"],
  ["CCOC(=O)c1cnc(N(C)C)nc1SC(=N)N", "> 100 µM"],
  ["COc1ccc(C(CC2(c3ccc(OC)cc3)SCCCS2)NC(C)=O)cc1 (stereo not drawn)", "> 100 µM"],
  ["Cc1cc(NC2=CC(=O)C(=O)c3ccccc32)no1", "> 48.1 µM"],
  ["CCN1CCC(O)(c2ccc(Oc3ccc(Cl)cc3)cc2)C(C(=O)c2ccc(Oc3ccc(Cl)cc3)cc2)C1 (stereo not drawn)", "> 100 µM"],
  ["COc1ccc(Cc2c3cc(O)c(=O)cc-3ccn2C)cc1", "37 µM"],
  ["Cc1ccc2c(c1)C(=C(C#N)C#N)CCCS2(=O)=O", "> 100 µM"],
  ["CNC(=O)c1c(C)oc2cc(Oc3ncnc4cc(OC)c(OC)cc34)ccc12", "> 100 µM"]
]}

* * *

Tested on: HT29 colon
Test: NCI tumour cell line growth inhibition, 48 h
Listing of recorded TGI by entry.

{"columns": ["compound", "TGI"],
 "data": [
  ["COc1cccc(/C=N/n2c(Cc3ccccc3)n[nH]c2=O)c1", "> 100 µM"],
  ["O=C(CSCC(=O)N/N=C/c1ccc2c(c1)OCO2)N/N=C/c1ccc2c(c1)OCO2", "> 100 µM"],
  ["C/C(=N\\N=C(N)N)C(CN1CCCCC1)C(c1ccccc1)c1c(O)c2ccccc2oc1=O (stereo not given)", "> 100 µM"],
  ["C=C(CCCCC)CN1CCCC1C(C)=O (stereo not given)", "> 100 µM"],
  ["COC1CCC(OS(C)(=O)=O)C(CO)O1 (stereo not given)", "> 100 µM"],
  ["Fc1ccc(-c2c(-c3ccncc3)nc3n2CCS3)cc1", "> 25 µM"],
  ["COc1ccc(C(c2ccccc2)(c2ccc(OC)cc2)N2C(=O)NC3C(CCCCC(=O)NCCCCCCOP(OCCC#N)N(C(C)C)C(C)C)SCC32)cc1 (stereo not given)", "31.7 µM"],
  ["N#C/C(=C\\c1cc(O)cc(O)c1)C(N)=O", "> 100 µM"],
  ["CCOC(OC(C)=O)[C@@H]1C=C[C@H](C)N(c2ccc([N+](=O)[O-])cc2)O1 (stereo not given in full)", "11.4 µM"],
  ["OC12c3ccccc3C1CCCCC2N1CCCC1 (stereo not given)", "> 100 µM"]
]}

* * *

Test system: HCT-116 colon
Experiment: NCI tumour cell line growth inhibition, 48 h

{"columns": ["molecule", "subjectOfTest", "TGI"],
 "data": [
  ["COC1CCC(OS(C)(=O)=O)C(CO)O1 (centres undefined)", "HCT-116 colon", "> 100 µM"],
  ["COc1ccc(Nc2nc3cc(N)cc(N)c3nc2-c2ccccc2)cc1", "HCT-116 colon", "28.1 µM"],
  ["NC(=O)C1CCCN1C(=O)C(Cc1cnc[nH]1)NC(=O)C1CCCC1 (centres undefined)", "HCT-116 colon", "> 100 µM"],
  ["COc1cc(C(=O)NC2CCc3cc(OC)c(OC)c(OC)c3-c3ccc(OC)c(=O)cc32)cc(OC)c1OC (centres undefined)", "HCT-116 colon", "1.69 µM"],
  ["C[C@@H]1C[C@H]2[C@@H]3CCC4=CC(=O)C=C[C@]4(C)[C@@]3(F)[C@@H](O)C[C@]2(C)[C@@]1(O)C(=O)CO", "HCT-116 colon", "> 100 µM"],
  ["CCc1nc(N)nc(N)c1-c1ccc(Cl)c([N+](=O)[O-])c1", "HCT-116 colon", "> 100 µM"],
  ["CC1=NN(c2cccc(Cl)c2)C2(SCC(=O)N2c2nc3ccccc3s2)C1=CC=Cc1ccccc1 (centres undefined)", "HCT-116 colon", "73.7 µM"],
  ["COc1ccc2ncn(-c3cc(O[C@H](C)c4ccccc4C(F)(F)F)c(C(N)=O)s3)c2c1", "HCT-116 colon", "3.53 µM"],
  ["CC1=N/C(=C/c2ccc3c(c2)OCO3)C(=O)O1", "HCT-116 colon", "> 100 µM"],
  ["CCn1cc2c(=O)n3ncn(-c4ccc(Br)cc4)c3nc2n1", "HCT-116 colon", "> 100 µM"],
  ["CC(=O)Oc1ccccc1", "HCT-116 colon", "> 100 µM"],
  ["CC(C)N(C(=O)C12C3C4C5(C#N)C3C1(C#N)C5C42C#N)C(C)C (centres undefined)", "HCT-116 colon", "> 100 µM"],
  ["Cc1c(C)c2ccc(OCC(O)COC(C)C)c(C)c2oc1=O (centres undefined)", "HCT-116 colon", "36 µM"],
  ["O=C(COc1ccc(Cl)c(Cl)c1)Nc1ccc[n+](Cc2ccc(S(=O)(=O)F)c(Cl)c2)c1", "HCT-116 colon", "> 100 µM"],
  ["O=c1nc2n3c4c(cccc4nc-2c(=O)[nH]1)CCC3", "HCT-116 colon", "> 100 µM"],
  ["O=C(O)c1cc(-c2ccc3cc4c(cc3c2)OCO4)nc2ccccc12", "HCT-116 colon", "> 100 µM"],
  ["Nc1nc(Cl)cc(NCC2(O)CCC2)n1", "HCT-116 colon", "> 100 µM"],
  ["CC1=C(C(=O)OC2CC3CCC2(C)C3(C)C)C2Nc3ccccc3N(C)C2O1 (centres undefined)", "HCT-116 colon", "7.36 µM"],
  ["CCOC(OC(C)=O)[C@@H]1C=C[C@H](C)N(c2ccc([N+](=O)[O-])cc2)O1 (some centres undefined)", "HCT-116 colon", "2.61 µM"],
  ["CCOC(=O)C1=CCCC[C@H]1S(=O)(=O)Nc1ccc(F)cc1Cl", "HCT-116 colon", "95.3 µM"],
  ["CC1CC(N)=C(C#N)C1(C#N)C#N (centres undefined)", "HCT-116 colon", "> 100 µM"],
  ["O=C(O)CSc1n[nH]c(=O)[nH]c1=O", "HCT-116 colon", "> 100 µM"],
  ["Cc1nc2sccn2c1C(=O)NN", "HCT-116 colon", "> 100 µM"],
  ["O=C(CN(/C=C/C(=O)C(F)(F)F)c1ccc(Cl)cc1)c1ccc(Cl)cc1", "HCT-116 colon", "20.7 µM"],
  ["O=C(CSCC(=O)N/N=C/c1ccc2c(c1)OCO2)N/N=C/c1ccc2c(c1)OCO2", "HCT-116 colon", "> 100 µM"],
  ["N#C/C(=C\\c1cc(O)cc(O)c1)C(N)=O", "HCT-116 colon", "> 100 µM"],
  ["COc1ccc2c(c1)C(=O)c1c-2n(CCCN(C)C)c(=O)c2ccccc12", "HCT-116 colon", "1.42 µM"],
  ["O=C(CSc1nc2c(n1Nc1ccccc1)-c1ccccc1SC2)Nc1nc(-c2ccc(Cl)cc2)cs1", "HCT-116 colon", "> 100 µM"],
  ["CCOC1CN=C(Nc2cccc3ccccc23)S1 (centres undefined)", "HCT-116 colon", "> 10 µM"]
]}
